Reported 100 nM mfIL-36R-MMH Bound (RU) by item:
testTarget: Macaca fascicularis IL-36R extracellular domain expressed with a C-terminal myc-myc-hexahistidine tag (Macaca fascicularis)
testProtocol: SPR Biacore T200, mAb captured by anti-hFc, 37C, PBS-T pH 6.0
# output: bare number, implied unit RU

| binder | 100 nM mfIL-36R-MMH Bound (RU) |
| --- | --- |
| H4H14758P (antibody, human IgG4 S228P, kappa, V domains shown) VH: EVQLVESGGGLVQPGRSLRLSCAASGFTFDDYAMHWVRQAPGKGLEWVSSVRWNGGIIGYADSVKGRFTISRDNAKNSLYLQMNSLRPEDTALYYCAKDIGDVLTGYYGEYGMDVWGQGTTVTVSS VL: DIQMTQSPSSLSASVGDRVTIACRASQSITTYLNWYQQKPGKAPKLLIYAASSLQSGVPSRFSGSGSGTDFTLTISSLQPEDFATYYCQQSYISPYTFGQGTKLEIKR | 1 |
| H4H14708P2 (antibody, human IgG4 S228P, kappa, V domains shown) VH: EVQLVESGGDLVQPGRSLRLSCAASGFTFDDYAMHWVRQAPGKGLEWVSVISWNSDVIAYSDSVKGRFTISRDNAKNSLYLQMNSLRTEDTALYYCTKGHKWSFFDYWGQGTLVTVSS VL: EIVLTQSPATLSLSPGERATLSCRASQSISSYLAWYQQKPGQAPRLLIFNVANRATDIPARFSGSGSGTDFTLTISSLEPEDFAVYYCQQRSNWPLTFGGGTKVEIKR | 58 |
| H4H14709P (antibody, human IgG4 S228P, kappa, V domains shown) VH: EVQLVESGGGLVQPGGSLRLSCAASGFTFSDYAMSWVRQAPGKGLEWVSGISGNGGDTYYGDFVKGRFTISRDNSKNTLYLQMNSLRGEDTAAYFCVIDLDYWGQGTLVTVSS VL: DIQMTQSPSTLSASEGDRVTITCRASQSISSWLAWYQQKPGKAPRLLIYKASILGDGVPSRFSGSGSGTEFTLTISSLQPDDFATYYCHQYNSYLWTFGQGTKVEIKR | 80 |
| H4H14731P (antibody, human IgG4 S228P, kappa, V domains shown) VH: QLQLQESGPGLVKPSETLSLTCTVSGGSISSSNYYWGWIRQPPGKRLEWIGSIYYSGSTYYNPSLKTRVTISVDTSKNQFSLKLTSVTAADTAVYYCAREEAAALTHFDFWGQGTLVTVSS VL: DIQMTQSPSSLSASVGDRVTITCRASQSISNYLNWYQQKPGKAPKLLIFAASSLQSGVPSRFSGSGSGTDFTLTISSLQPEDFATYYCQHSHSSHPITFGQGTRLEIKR | 40 |
| H4H14700P2 (antibody, human IgG4 S228P, kappa, V domains shown) VH: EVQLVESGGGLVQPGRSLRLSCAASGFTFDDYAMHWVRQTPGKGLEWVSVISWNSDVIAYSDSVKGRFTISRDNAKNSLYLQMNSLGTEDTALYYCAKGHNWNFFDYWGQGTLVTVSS VL: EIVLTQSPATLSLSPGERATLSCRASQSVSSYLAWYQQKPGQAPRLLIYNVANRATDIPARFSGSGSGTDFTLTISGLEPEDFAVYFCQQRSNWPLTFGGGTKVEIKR | 97 |
| H4H14728P (antibody, human IgG4 S228P, kappa, V domains shown) VH: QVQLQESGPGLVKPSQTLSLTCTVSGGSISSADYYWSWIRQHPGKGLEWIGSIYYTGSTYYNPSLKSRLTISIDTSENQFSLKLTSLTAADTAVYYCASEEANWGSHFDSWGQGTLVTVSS VL: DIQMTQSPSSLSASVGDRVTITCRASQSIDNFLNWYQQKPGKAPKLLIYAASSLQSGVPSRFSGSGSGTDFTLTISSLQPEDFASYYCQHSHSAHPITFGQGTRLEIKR | 91 |

Let us examine a further case.
Please report the recorded 100 nM mfIL-36R-MMH Bound (RU) for H4H14757P (antibody, human IgG4 S228P, kappa, V domains shown) VH: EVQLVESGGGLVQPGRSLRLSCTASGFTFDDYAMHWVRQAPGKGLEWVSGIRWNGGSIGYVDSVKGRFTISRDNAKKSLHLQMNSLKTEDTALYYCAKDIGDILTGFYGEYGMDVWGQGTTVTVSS VL: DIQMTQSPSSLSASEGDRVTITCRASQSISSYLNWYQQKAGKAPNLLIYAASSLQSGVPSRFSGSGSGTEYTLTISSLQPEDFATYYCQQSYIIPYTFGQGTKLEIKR .
-1

Ref: patent US20200017592A1
